Measured values drawn from patent US11517577B2 for this set.

target: TGR5 (GPBAR1) receptor (Homo sapiens); assay: HITHUNTER cAMP assay, agonist mode, TGR5 receptor
Sequence (Q8TDU6 whole entry): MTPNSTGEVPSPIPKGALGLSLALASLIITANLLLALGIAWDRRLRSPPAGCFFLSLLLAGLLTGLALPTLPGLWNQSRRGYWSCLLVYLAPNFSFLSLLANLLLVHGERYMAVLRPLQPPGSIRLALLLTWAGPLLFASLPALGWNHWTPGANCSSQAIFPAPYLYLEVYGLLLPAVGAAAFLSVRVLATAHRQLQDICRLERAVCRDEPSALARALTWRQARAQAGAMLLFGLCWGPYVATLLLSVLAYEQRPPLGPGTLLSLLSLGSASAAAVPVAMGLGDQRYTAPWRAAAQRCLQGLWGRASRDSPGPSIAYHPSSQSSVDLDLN
pEC50: −log10 of the molar value.
MEASUREMENT_LABEL: pEC50

// lookup pEC50 for CC[C@@H]1[C@@H]2[C@@H](F)[C@H](O)CC[C@]2(C)C2CC[C@@]3(C)C(CCC3[C@H](C)CCNC(=O)NS(=O)(=O)c3ccccc3)C2[C@@H]1O (some centres unmarked)
< 4.00

// lookup pEC50 for "CC[C@H]1[C@@H](O)[C@@H]2[C@H](CC[C@]3(C)[C@@H]([C@H](C)CCC(=O)NS(=O)(=O)c4ccc(OC(F)(F)F)cc4)CC[C@@H]23)[C@@]2(C)CC[C@@H](O)[C@H](F)[C@@H]12"
< 4.00
